# systemName: human TLR9 (Homo sapiens)
# Construct: expressed in transfected cells
# Sequence (Q9NR96 26-1032): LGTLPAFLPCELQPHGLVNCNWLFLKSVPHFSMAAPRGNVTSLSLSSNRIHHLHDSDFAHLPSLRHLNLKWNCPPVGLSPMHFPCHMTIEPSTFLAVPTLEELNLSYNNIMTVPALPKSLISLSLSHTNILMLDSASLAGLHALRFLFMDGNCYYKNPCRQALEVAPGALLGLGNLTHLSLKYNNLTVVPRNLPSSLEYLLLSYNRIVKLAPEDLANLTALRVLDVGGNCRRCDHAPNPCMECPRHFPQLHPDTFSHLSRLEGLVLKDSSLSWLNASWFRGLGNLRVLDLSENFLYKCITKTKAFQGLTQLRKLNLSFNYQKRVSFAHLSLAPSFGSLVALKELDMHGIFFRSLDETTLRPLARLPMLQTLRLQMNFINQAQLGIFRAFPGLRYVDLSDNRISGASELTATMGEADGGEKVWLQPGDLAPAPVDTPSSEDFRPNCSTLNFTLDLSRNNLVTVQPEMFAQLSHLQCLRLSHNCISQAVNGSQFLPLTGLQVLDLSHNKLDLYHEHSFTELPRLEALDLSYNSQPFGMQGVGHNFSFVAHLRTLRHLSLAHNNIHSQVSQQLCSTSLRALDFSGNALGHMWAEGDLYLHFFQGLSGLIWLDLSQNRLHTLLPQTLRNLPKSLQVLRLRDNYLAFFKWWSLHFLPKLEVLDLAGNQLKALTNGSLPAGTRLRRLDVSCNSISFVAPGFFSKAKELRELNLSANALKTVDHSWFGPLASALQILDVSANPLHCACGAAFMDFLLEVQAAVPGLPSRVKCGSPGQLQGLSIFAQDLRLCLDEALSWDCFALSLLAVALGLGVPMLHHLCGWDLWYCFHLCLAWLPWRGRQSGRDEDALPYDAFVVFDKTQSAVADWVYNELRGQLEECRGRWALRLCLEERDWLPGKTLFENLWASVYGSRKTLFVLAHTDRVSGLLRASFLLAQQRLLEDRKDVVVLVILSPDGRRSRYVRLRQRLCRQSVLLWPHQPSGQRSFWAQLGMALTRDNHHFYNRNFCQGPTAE
# runDescription: TLR9 luciferase assay (NF-κB reporter) in hTLR9-LUC-293 cells
# Type: cell-based
# experimentalSetup: 16 h, stated in words relative to the comparator ODN
Strand notation (5' to 3'): a small letter for the sugar, then the base; units joined by * are phosphorothioate-linked, units joined directly phosphodiester-linked; [ ] holds rarer units or linkages, { } end groups; capitals alone tell only the bases. [5IU] = 5-iodo-2'-deoxyuridine; d = 2'-deoxy (DNA); m = 2'-O-methyl
propertyMeasured: TLR9 stimulation (NF-κB luciferase activity, relative stimulation index)

T*G*JU*C-mG*T*T*T*T*T*T*T*T*T*T*T*T*T*T*T (DNA dT*dG*d[5IU]*dCmG*dT*dT*dT*dT*dT*dT*dT*dT*dT*dT*dT*dT*dT*dT*dT) [SEQ ID NO:112, 2′-O-methyl-modified B-class] :: slightly more active
T*mG*JU*C-mG*T*T*T*T*T*T*T*T*T*T*T*T*T*T*T (DNA dT*mG*d[5IU]*dCmG*dT*dT*dT*dT*dT*dT*dT*dT*dT*dT*dT*dT*dT*dT*dT) [SEQ ID NO:113, 2′-O-methyl-modified B-class] :: slightly more active
